These measurements were taken from patent US20150190494A1.

Target: T1, fH67 (UniProt P08603 321-443)
T1 construct: domain: fH67; Flowed as analyte over immobilised fHbps in SPR; also called factor H
T1 sequence: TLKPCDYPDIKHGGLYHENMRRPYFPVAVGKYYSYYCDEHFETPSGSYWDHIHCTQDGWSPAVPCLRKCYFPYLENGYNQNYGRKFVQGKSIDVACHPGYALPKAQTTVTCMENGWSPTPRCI
Test: SPR, fHbp immobilised on sensor chip, fH67 flowed over; mean ± SD of two determinations
Reported Property: pKd
In plain terms, pKd is the concentration in mol/L turned into minus its base-10 logarithm.

M4A V2 fHbp (S35G/D107S/S137G/G138D) (other) CSSGGGGVAADIGAGLADALTAPLDHKDKGLQSLTLDQSVRKNEKLKLAAQGAEKTYGNGDSLNTGKLKNDKVSRFDFIRQIEVDGQLITLESGEFQIYKQSHSAVVALQIEKINNPDKIDSLINQRSFLVGDLGGEHTAFNQLPSGKAEYHGKAFSSDDPNGRLHYSIDFTKKQGYGRIEHLKTPEQNVELASAELKADEKSHAVILGDTRYGGEEKGTYHLALFGDRAQEIAGSATVKIREKVHEIGIAGKQ: 8.12

Supply recorded pKd for M4B V2 fHbp (S35G/L114F/S137G/G138D) (other) CSSGGGGVAADIGAGLADALTAPLDHKDKGLQSLTLDQSVRKNEKLKLAAQGAEKTYGNGDSLNTGKLKNDKVSRFDFIRQIEVDGQLITLESGEFQIYKQDHSAVVAFQIEKINNPDKIDSLINQRSFLVGDLGGEHTAFNQLPSGKAEYHGKAFSSDDPNGRLHYSIDFTKKQGYGRIEHLKTPEQNVELASAELKADEKSHAVILGDTRYGGEEKGTYHLALFGDRAQEIAGSATVKIREKVHEIGIAGKQ here. 7.90
